- Measurement description: Effect of concentration on the stability of the solution (purity over time)
- Experimental parameters: 0.01 wt % in 50% ethanol, 25° C.
Property measured: Purity (%) at Day 7
Give just the number in %; leave the unit off.

>  <Compound>
CC(C)OC(=O)c1ccccc1 [Isopropyl benzoate, reference compound]

>  <Reported measurement>
98.3

$$$$
>  <Compound>
CCOC(=O)c1ccccc1 [Ethyl benzoate, reference compound]

>  <Reported measurement>
96.9

$$$$
>  <Compound>
CC(C)OC(=O)C(N)Cc1ccccc1 (centres unmarked) [Isopropyl 2-amino-3-phenylpropanoate, reference compound]

>  <Reported measurement>
97.1

$$$$
>  <Compound>
CC(C)(C)OC(=O)C(N)Cc1ccccc1 (centres unmarked) [t-Butyl 2-amino-3-phenylpropanoate, reference compound]

>  <Reported measurement>
89.4

$$$$

Kindly consider the entry below.
Bench note: what Purity (%) at Day 7 did CC(C)(C)OC(=O)c1ccccc1 [t-Butyl benzoate, reference compound] show?
0.0
